- target_entity: T1, biotinylated hBLyS-ECD (human, UniProt Q9Y275 134-285, biotinylated with Biotin-X-X-NHS (molar ratio 7:1), sites not stated)
- T1 construct: The hBLyS-ECD of Embodiment 1 after biotinylation (Embodiment 2); also called biotinylated immunogen; BLyS protein; not shown: His tag of the pCPC vector
- assay_overview: ELISA, biotinylated hBLyS-ECD captured on streptavidin; antibody 0.0213 nM

{"binder": "8E7D9C7F5 (antibody, V domains shown, Mouse hybridoma antibody purified on Protein G) VH: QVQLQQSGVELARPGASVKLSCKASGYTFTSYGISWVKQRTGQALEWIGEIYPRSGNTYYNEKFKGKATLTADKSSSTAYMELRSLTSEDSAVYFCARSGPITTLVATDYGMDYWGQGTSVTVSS VL: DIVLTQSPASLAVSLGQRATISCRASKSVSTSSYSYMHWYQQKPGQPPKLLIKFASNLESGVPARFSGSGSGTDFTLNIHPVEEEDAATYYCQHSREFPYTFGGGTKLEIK", "OD450 nm": 0.291}
